- System: Wnt5a (protein binding on small-molecule microarray)
- method: Wnt5a binders on small-molecule microarray, primary screen, biophysical, 635/667 nm fluorescence (AID 1142);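 also: fluorescence read at 667 nm with signal to noise per printed feature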
- experimental context: 635 nm fluorescence, higher = more signal
Could you please report measured composite z-score for the items listed next?
Kindly provide the number alone.

Quick check: composite z-score of `CO[C@H]1COC(=O)CC=C[C@H](C)[C@@H](OC)COC(=O)[C@H](C)COC(=O)CC=C[C@@H]1C` ?
-0.144

Quick check: composite z-score of `CCOC(=O)NN=C1C[C@@H](O)[C@@H](O)[C@@H]2[C@@H]3C(=O)N(c4cccc(Oc5ccccc5)c4)C(=O)[C@@H]3CC[C@@H]12` ?
0.0449

Quick check: composite z-score of `COC(=O)CC=C[C@@H](C)[C@@H](C=NO[C@H](C)c1cn([C@H](CO)Cc2ccccc2)nn1)OC` ?
0.247

Quick check: composite z-score of `O=C1C[C@@H](O)[C@@H](O)[C@@H]2[C@@H]3C(=O)N(C[C@@H]4CCCO4)C(=O)[C@@H]3CC[C@@H]12` ?
0.191

Quick check: composite z-score of `C[C@@H](c1ccccc1)N1C(=O)[C@H]2[C@H]3[C@H](O)[C@H](O)CC(=NOCc4ccccc4)[C@H]3CC[C@H]2C1=O` ?
-0.0159

Quick check: composite z-score of `CCOC(=O)C1=NO[C@@]2(C=C(Br)C3(OCCCO3)[C@H]3O[C@H]32)C1` ?
0.4

Quick check: composite z-score of `CC(=O)Nc1ccc([C@@H]2N[C@H](C(=O)O)CC[C@H]2C)cc1` ?
0.101

Quick check: composite z-score of `COc1cccc([C@H]2Oc3ccc(OC)cc3C(=NOC[C@@H](O)COCc3ccco3)[C@@H]2O)c1` ?
-0.217

Data origin, for the record: PubChem BioAssay
